# IC50 at 24 h per record follows
assay: MTS/PMS cell viability, MRC5; format: cell-based; settings: human, MRC5 normal lung fibroblast cells
Kindly provide the numeric value in µM only, without the unit symbol.

Example molecules with recorded IC50 at 24 h:
C=C(C)[C@@H]1CC[C@]2(C(=O)O)CC[C@]3(C)[C@H](CC[C@@H]4[C@@]5(C)CC[C@H](O)C(C)(C)[C@@H]5CC[C@]43C)[C@@H]12
19
C[C@H]1[C@H](C)CC[C@]2(C(=O)O)CC[C@]3(C)C(=CC[C@@H]4[C@@]5(C)C[C@@H](O)[C@H](O)[C@@](C)(CO)[C@@H]5CC[C@]43C)[C@H]12
38
C[C@H]1[C@H](C)CC[C@]2(C(=O)O)CC[C@]3(C)C(=CC[C@@H]4[C@@]5(C)CC[C@H](O)C(C)(C)[C@@H]5CC[C@]43C)[C@H]12
13
CC1(C)CC[C@]2(C(=O)O)CC[C@]3(C)C(=CC[C@@H]4[C@@]5(C)CC[C@H](O)C(C)(C)[C@@H]5CC[C@]43C)[C@@H]2C1
86
C=C(C)[C@@H]1CC[C@]2(C)CC[C@]3(C)[C@H](CC[C@@H]4[C@@]5(C)CC[C@H](O)C(C)(C)[C@@H]5CC[C@]43C)[C@@H]12
101

Record request: IC50 at 24 h value, item `C=C(C)[C@@H]1CC[C@]2(CO)CC[C@]3(C)[C@H](CC[C@@H]4[C@@]5(C)CC[C@H](O)C(C)(C)[C@@H]5CC[C@]43C)[C@@H]12`
16
